# Test system: Microfilaria of Dirofilaria immitis
# assay_text: Motility of Dirofilaria immitis microfilariae in microtiter plate, 3 days, dose response
# Format: cell-based
# assay_conditions: 72 h, read-out: EC50, motility of D. immitis microfilaria, three days at 37° C., 5% CO2, vs DMSO control
What EC50 was measured for each of the following?

Each molecule below has a recorded value; state its EC50.
1. Cc1cc2c(C(C)C)c(C(=O)N[C@H]3CCOc4ccccc43)cnn2c1-c1cc(F)cc(Cl)c1Cl
2. CC1(F)CN(c2c(C(=O)N[C@H]3CCOc4ccccc43)cnn3c(-c4cc(F)cc(Cl)c4Cl)c(Cl)cc23)C1
3. Cc1cc2c(N(C)C)c(C(=O)N[C@H]3CCOc4ccccc43)cnn2c1-c1cc(Cl)cc(Cl)c1Cl
4. Cc1cc2c(C(C)(C)C)c(C(=O)NN3CCOc4ccccc43)cnn2c1-c1cc(F)cc(Cl)c1Cl
5. CN(C)c1c(C(=O)N[C@H]2CCOc3ccccc32)cnn2c(-c3cc(Cl)cc(Cl)c3Cl)c(Cl)cc12
6. Cc1cc2c(C(C)(C)C)c(C(=O)N[C@H]3CCCc4ccccc43)cnn2c1-c1cc(F)cc(Cl)c1Cl
7. Cc1cc2c(C(C)(C)C)c(C(=O)N[C@H]3CCOc4ccccc43)cnn2c1N1C[C@H](C)C[C@H](C)C1

["< 10 nM", "1000 to 10000 nM", "< 10 nM", "< 10 nM", "10 to 100 nM", "< 10 nM", "10 to 100 nM"]

From: patent US11999742B2
